test.summary: Selectivity index, ratio of IC50 for human SH-SY5Y cells to Ki for human sigma 1 receptor in human Jurkat cell membranes
// label = met if Selectivity Index is not less than 3000, otherwise not met

{"columns": ["molecule", "answer.label"],
 "data": [
  ["CN(CCCN1CCc2oc3ccccc3c2C1)Cc1ccccc1", "met"],
  ["CN(CCCn1c(=O)oc2cc3c(cc21)C(c1ccc(Cl)cc1)CC3=O)Cc1ccccc1 (stereo unspecified)", "not met"],
  ["CN(CCCN1c2ccccc2Sc2ccccc21)Cc1ccccc1", "not met"],
  ["c1ccc2c(c1)CN(CCCN1CCc3[nH]c4ccccc4c3C1)C2", "not met"]
]}

Now look at this one.
Query :: Record c1ccc2c(c1)CN(CCCN1CCc3c([nH]c4ccccc34)C1)C2 ; criterion: Selectivity Index no lower than 3000. Met?
Result :: met
